Each recorded value in this set is attributed to ChEMBL document CHEMBL3507680.

Assay: Human HepG2 cell viability assay in 384 well format
Assay type: toxicity, cell-based
Parameters: dose 125 nL, time 70.5 hour; concentration not given beside the values
Conditions: HepG2 cells, read-out: Inhibition
Observed Property: cytotoxicity at 70.5 h (%)
Numbers only, in %.

Need cytotoxicity at 70.5 h for each of these compounds.
1. O=C(NC1CCN(C(=O)C2CCCCC2)C1)c1ccncc1Cl (centres undefined)
2. Cc1ncc2c(n1)CN(Cc1nc(-c3ccsc3)oc1C)CC2
3. CC(=O)Nc1cccc(OCCNC(=O)N(C)Cc2ccccc2)c1
4. CC(C)c1nc(CC(=O)N2CCCC(n3cncn3)C2)cs1 (centres undefined)
5. COc1ccc2c(c1OC)Cc1c-2nc(N)c(C#N)c1C1CCOC1 (centres undefined)
6. Cc1noc(C)c1C(=O)N1CCC(n2cccn2)CC1

1. -9.33
2. -15.2
3. 3.43
4. 2.88
5. -19.2
6. -3.66

Need cytotoxicity at 70.5 h for each of these compounds.
1. CN(C(=O)c1ccc(Cl)cc1)C1CCN(c2ccccn2)CC1
2. Cn1ccnc1CN1C[C@H](N2CCOCC2)[C@@H]2OCCC[C@@H]21
3. COCCN(Cc1nccs1)C(=O)c1cc(-c2ccc(C)s2)n[nH]1

1: 2.33; 2: -3.14; 3: -5.54

Need cytotoxicity at 70.5 h for each of these compounds.
1. CCc1ncc(C(=O)N2CCCN(C3CCCC3)CC2)cn1
2. Cc1nnc(NC(=O)NCc2cc(F)cc(F)c2)s1
3. Cn1nccc1C(=O)N1CCCC1c1[nH]ncc1C(N)=O (centres undefined)
4. CC(C)(O)CCc1cccc(C(=O)N2CCC3(CCO3)CC2)c1

1. -14.6
2. -14.2
3. -6.47
4. -1.91
